The values you see were collected from patent US20260078159A1.

- subject of test: T1, human PD1 on cells (human, UniProt Q15116 25-288)
- T1 construct: HEK 293T cells stably expressing the human PD1 gene (Crown Bioscience) in flow cytometry; also called HEK293-hPD1; PD1+ HEK293 cells
- protocol text: flow cytometry on PD1+ HEK293 cells, MFI
- Description: Additionally, HEK 293T cells stably expressing human PD1 gene (Crown Bioscience) was used to determine the cell-based binding strength of the optimized PD1 antibodies by flow cytometry. […] Following a 30-minute incubation at 4° C. and another double wash with FACS buffer, antibodies bound to the cells were detected with PE-labeled secondary antibody by flow cytometry (BD ACCURI-C6), and EC₅₀ values were calculated using GraphPad Prism software.

{"binder": "P-1199 (antibody, human IgG1, kappa, V domains shown, Full-length IgG1 L234A/L235A/G237A, kappa) VH: EVQLLESGGGLVQPGGSLRLSCAASGFTFTNYYMYWVRQAPGKGLEWVSGINPSNGGTNFADKFKGRFTISTDSSKNTLYLQMNSLRAEDTAVYYCARRDYRFDMGFDYWGQGTLVTVSS VL: EIVLTQSPATLSLSPGERATLSCRASQGVSTSGYSYLHWYQQKPGQAPRLLIYLASYRESGVPARFSGSGSGTDFTLTISSLEPEDFAVYYCQHSRDLPLTFGGGTKVEIKR", "EC50 (pM)": 120}
{"binder": "P-1193 (antibody, human IgG1, kappa, V domains shown, Full-length IgG1 L234A/L235A/G237A, kappa) VH: EVQLLESGGGLVQPGGSLRLSCAASGFTFTNYYMYWVRQAPGKGLEWVSGINPSNGGTNFADKFKGRFTISRDNSKNTLYLQMNSLRAEDTAVYYCARRDYRFDMGFDYWGQGTLVTVSS VL: EIVLTQSPATLSLSPGERATLSCRASQGVSTSGYSYLHWYQQKPGQAPRLLIYLASYRESGVPARFSGSGSGTDFTLTISSLEPEDFAVYYCQHSRDLPLTFGGGTKVEIKR", "EC50 (pM)": 259}
{"binder": "P-1198 (antibody, human IgG1, kappa, V domains shown, Full-length IgG1 L234A/L235A/G237A, kappa) VH: EVQLLESGGGLVQPGGSLRLSCAASGFTFTNYYMYWVRQAPGKGLEWVSGINPSNGGTNFADKFKGRFTISRDSSKNTLYLQMNSLRAEDTAVYYCARRDYRFDMGFDYWGQGTLVTVSS VL: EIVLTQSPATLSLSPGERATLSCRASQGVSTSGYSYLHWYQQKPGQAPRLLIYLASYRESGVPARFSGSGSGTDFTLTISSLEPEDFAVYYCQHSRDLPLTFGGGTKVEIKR", "EC50 (pM)": 87}
